# phosphorylation enrichment listing for each entry below
# SYSTEM_NAME: FGFR3 (UniProt P22607)
# Sequence (P22607 whole entry, looked up): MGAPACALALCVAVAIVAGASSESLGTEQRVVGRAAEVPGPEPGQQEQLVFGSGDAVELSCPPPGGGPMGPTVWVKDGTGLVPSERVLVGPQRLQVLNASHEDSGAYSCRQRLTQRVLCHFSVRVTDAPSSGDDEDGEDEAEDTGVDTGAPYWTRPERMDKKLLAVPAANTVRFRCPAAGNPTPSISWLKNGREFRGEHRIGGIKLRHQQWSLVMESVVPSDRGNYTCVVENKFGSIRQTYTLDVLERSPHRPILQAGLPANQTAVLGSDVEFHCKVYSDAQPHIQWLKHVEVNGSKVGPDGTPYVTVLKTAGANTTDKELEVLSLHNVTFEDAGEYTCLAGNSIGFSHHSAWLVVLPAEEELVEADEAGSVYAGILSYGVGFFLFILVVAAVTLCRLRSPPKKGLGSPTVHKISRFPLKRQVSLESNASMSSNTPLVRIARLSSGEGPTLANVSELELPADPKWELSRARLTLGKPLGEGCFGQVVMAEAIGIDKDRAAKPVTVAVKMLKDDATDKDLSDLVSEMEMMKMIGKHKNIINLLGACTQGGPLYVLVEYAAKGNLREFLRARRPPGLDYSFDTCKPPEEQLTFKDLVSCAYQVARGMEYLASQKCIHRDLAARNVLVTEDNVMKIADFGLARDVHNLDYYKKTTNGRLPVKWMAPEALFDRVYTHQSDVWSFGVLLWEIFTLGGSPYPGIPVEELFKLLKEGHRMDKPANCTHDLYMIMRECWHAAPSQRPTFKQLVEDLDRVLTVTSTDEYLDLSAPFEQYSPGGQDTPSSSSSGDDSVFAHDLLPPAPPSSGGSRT
# ASSAY_PROCEDURE: phosphorylation enrichment, bacterial display (enrichment ratio); higher = better substrate or ligand; peptides without Tyr show the background
Give the figure by itself; no unit, no explanation.

Reference set (2 entries):
- SEQ: "KMLEKYKERLN [TLK2_Y259]"
  SYSTEM_NAME: "FGFR3 (UniProt P22607)"
  phosphorylation enrichment: 0.557
- SEQ: "AVISVYDLVVV [PSEN1_Y256_A260V]"
  SYSTEM_NAME: "FGFR3 (UniProt P22607)"
  phosphorylation enrichment: 1.02

Req: # lookup: phosphorylation enrichment of FADTAYNFRHG [PAH_Y166_I164T_YF]
Resp: 0.39

Req: Requested read-out: phosphorylation enrichment. Entry: MHDSNSVSKGS [PDGFRA_Y849_Y849S]
Resp: 0.329

Req: What value of measured phosphorylation enrichment is listed for EVTLTYATGTK [NFKB1_Y485] ?
Resp: 0.643

Req: Using the record for NDQANYSLNTD [ADA_Y290] , report its phosphorylation enrichment.
Resp: 0.749

Req: // lookup phosphorylation enrichment for GRSTFYWPRPR [GAGE12J_Y10_YF]
Resp: 0.47

Req: Fill in: phosphorylation enrichment of QITQVYGFFHE [PPP2CA_Y127_D131H_YF] is ___
Resp: 1.26

Req: Item under review: LKYAIYFEVRE [LAMA2_Y1258_A1261V] . Reported phosphorylation enrichment?
Resp: 1.39

Req: Can you share its phosphorylation enrichment? I mean this sequence: RLKAKYAAATG [GLI3_Y933]
Resp: 0.395

---

Let's look at some sequences and their measured SH2 binding enrichment.
# SYSTEM_NAME: SHP2-C SH2
# ASSAY_PROCEDURE: SH2 binding enrichment of the phosphorylated peptide, bacterial display (enrichment ratio); higher = better substrate or ligand; peptides without Tyr show the background
// no unit, no text: just the number

- SEQ: "RRVLVYGGRGA [QDPR_Y16]"
  RECORDED_VALUE: 0.683
- SEQ: "VVHSSYDEIEG [SEC24A_Y263]"
  RECORDED_VALUE: 0.87
- SEQ: "QKFMAYLSQGG [HLCS_Y236]"
  RECORDED_VALUE: 1.17

Req: Please report the recorded SH2 binding enrichment for RLCQDYDTIGP [ANK1_Y1073] .
Resp: 0.814

Req: Which SH2 binding enrichment is reported for this sequence? QDEHGYISRCF [HSPB1_Y133]
Resp: 0.763

Req: Requested read-out: SH2 binding enrichment. Entry: KLGDVYVNDAF [PGK1_Y161]
Resp: 0.729

---

# SYSTEM_NAME: Hck (UniProt P08631)
# Sequence (P08631 whole entry, looked up): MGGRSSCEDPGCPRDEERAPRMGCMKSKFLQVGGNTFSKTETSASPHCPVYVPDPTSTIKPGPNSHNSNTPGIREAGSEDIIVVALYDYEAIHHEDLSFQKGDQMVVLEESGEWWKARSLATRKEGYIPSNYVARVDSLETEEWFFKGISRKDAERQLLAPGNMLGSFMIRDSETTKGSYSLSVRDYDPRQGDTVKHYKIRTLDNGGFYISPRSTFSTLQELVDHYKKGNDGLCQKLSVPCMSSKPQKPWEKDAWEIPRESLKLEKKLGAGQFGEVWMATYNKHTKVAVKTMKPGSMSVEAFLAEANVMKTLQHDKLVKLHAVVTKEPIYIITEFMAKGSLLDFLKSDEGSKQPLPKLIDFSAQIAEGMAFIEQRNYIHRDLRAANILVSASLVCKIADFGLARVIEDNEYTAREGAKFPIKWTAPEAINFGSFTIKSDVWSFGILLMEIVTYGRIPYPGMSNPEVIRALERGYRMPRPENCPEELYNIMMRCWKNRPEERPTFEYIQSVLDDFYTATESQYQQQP
# ASSAY_PROCEDURE: phosphorylation enrichment, bacterial display (enrichment ratio); higher = better substrate or ligand; peptides without Tyr show the background
METRIC: phosphorylation enrichment
Please respond with just the number, no unit label.

- SEQ: "RRETPYGGGGG [FUS_Y526_R524T]"
  phosphorylation enrichment: 0.604
- SEQ: "QDRDLYPCPGT [RLF_Y671]"
  phosphorylation enrichment: 0.429
- SEQ: "CTTIHQNYMCN [TP53_Y234_Y234Q]"
  phosphorylation enrichment: 0.41
- SEQ: "EWLRGYLENGK [HLA-C_Y195_R194G]"
  phosphorylation enrichment: 0.483
- SEQ: "FRSSLYLLMET [MYO5C_Y633]"
  phosphorylation enrichment: 0.576
- SEQ: "MSLDQYSPSFP [FGFR1_Y776_P772S]"
  phosphorylation enrichment: 0.481
- SEQ: "RQAQAYRGQRV [TSHR_Y706]"
  phosphorylation enrichment: 0.839
- SEQ: "PVDNLYAEPAV [PRPS1_Y146]"
  phosphorylation enrichment: 3.99

Req: So what's the measured phosphorylation enrichment for this one? HYVYYYSYLLK [PTEN_Y178_R173H]
Resp: 3.19

Req: If you can, please state the reported phosphorylation enrichment value of HAVEDYQAIVD [CCT7_Y263_T259A] .
Resp: 0.714

Req: Using the record for HEEKVYLSRGD [CRACR2A_Y141] , report its phosphorylation enrichment.
Resp: 0.885

---

# System: c-Abl (mouse)
# ASSAY_PROCEDURE: phosphorylation enrichment, bacterial display (enrichment ratio); higher = better substrate or ligand; peptides without Tyr show the background
Lab note: compare phosphorylation enrichment against 0.8. Equal or greater, write label 1. Smaller, write label 0.

Sample answers from the record:
- SEQ: "PLLLSYFLIKW [NUP160_Y773_YF]"
  ASSIGNED_CATEGORY: "label 1"
- SEQ: "QQTYTYDSGIH [JUP_Y22]"
  ASSIGNED_CATEGORY: "label 1"
- SEQ: "QNTGVYFDLFG [PTPN11_Y62_D61V_YF]"
  ASSIGNED_CATEGORY: "label 1"
- SEQ: "IPGRFYETGSI [PAX2_Y73_L69P_YF]"
  ASSIGNED_CATEGORY: "label 0"
- SEQ: "FSNVLYRPRGP [TMIGD2_Y197_A202P_YF]"
  ASSIGNED_CATEGORY: "label 0"

// next entry
Req: Tell me whether phosphorylation enrichment is at least 0.8 here: SETDDYAEIIV [PTK2_Y397_D402V]
Resp: label 0

---

# SYSTEM_NAME: MERTK (UniProt Q12866)
# Sequence (Q12866 whole entry, looked up): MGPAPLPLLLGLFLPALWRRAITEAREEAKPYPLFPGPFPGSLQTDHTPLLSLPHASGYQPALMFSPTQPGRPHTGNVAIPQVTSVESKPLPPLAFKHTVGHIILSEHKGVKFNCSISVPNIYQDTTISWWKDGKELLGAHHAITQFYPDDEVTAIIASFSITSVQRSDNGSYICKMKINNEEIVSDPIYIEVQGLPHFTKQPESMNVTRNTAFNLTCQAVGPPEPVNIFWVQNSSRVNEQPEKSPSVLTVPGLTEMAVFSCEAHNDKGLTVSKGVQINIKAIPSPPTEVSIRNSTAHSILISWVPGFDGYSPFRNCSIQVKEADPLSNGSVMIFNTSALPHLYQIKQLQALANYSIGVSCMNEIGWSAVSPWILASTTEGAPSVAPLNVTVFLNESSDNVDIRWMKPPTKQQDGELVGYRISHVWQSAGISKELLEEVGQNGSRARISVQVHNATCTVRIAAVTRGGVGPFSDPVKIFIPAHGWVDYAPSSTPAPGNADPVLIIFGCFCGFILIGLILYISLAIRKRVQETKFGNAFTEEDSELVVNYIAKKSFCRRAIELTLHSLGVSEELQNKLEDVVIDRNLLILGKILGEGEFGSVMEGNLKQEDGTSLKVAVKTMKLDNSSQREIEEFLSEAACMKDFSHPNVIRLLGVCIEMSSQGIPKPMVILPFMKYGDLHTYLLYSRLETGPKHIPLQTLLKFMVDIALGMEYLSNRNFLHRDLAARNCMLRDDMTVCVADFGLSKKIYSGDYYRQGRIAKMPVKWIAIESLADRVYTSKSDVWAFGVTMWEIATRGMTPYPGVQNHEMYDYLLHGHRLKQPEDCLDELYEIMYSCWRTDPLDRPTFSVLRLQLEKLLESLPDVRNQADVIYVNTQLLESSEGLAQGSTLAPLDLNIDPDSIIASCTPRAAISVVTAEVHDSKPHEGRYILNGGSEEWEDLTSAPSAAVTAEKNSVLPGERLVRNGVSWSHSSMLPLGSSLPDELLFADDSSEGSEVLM
# ASSAY_PROCEDURE: phosphorylation enrichment, bacterial display (enrichment ratio); higher = better substrate or ligand; peptides without Tyr show the background
METRIC: phosphorylation enrichment
# output: bare number, no unit

// below: answered sequences
- SEQ: "LNCIFYKDQTG [RS1_Y166_W163C_YF]"
  RECORDED_VALUE: 0.798
- SEQ: "VDASYYGGRGV [ANTXR2_Y381]"
  RECORDED_VALUE: 0.775
- SEQ: "GNLQENLTRHV [TGFBR2_Y336_Y336N]"
  RECORDED_VALUE: 0.368
- SEQ: "KLKRSYPSPDI [USP8_Y717_S718P]"
  RECORDED_VALUE: 0.467
- SEQ: "IGRWVYPLTPE [EIF2B5_Y319_R315G]"
  RECORDED_VALUE: 0.551
- SEQ: "GLGVTYEQALA [MAP2_Y996]"
  RECORDED_VALUE: 0.372
- SEQ: "RKQQLYTAMEE [CCDC39_Y593]"
  RECORDED_VALUE: 2.02
- SEQ: "LFFFSYLLKNH [PTEN_Y180_V175L_YF]"
  RECORDED_VALUE: 0.584
- SEQ: "KQMEQYMSFHK [HCN1_Y417_V414M]"
  RECORDED_VALUE: 0.419
- SEQ: "SKQGKYLNWDA [ATM_Y54]"
  RECORDED_VALUE: 0.399

Req: # get_value(readout='phosphorylation enrichment', item= MSSHHYDYKKY [ZNF445_Y428] )
Resp: 0.339

Req: What phosphorylation enrichment value was documented for this sequence, SLQSEYVHFGG [CDC14A_Y591_YF] ?
Resp: 0.509

Req: Which phosphorylation enrichment is reported for this sequence? MVIPNYSSWTE [UROC1_Y185_R188W]
Resp: 3.74

Req: Recorded phosphorylation enrichment of LSIDRYHAIVY [NPSR1_Y147] , please.
Resp: 0.7

---

# SYSTEM_NAME: Grb2 SH2 (UniProt P62993)
# Sequence (P62993 whole entry, looked up): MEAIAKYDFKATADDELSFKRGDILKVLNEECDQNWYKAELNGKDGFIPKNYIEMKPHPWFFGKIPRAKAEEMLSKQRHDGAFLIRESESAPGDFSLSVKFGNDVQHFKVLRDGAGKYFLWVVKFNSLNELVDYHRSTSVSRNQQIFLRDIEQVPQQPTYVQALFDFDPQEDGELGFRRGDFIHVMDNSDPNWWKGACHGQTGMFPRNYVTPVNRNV
# ASSAY_PROCEDURE: SH2 binding enrichment of the phosphorylated peptide, bacterial display (enrichment ratio); higher = better substrate or ligand; peptides without Tyr show the background
METRIC: SH2 binding enrichment
Respond using a number only.

Here's what some known entries look like.
- SEQ: "AQQPIYIRVEG [NLRP7_Y318_V319I]"
  SYSTEM_NAME: "Grb2 SH2 (UniProt P62993)"
  METRIC: "SH2 binding enrichment"
  RECORDED_VALUE: 1.03
- SEQ: "LLASGYDSPIN [ABLIM1_Y638_R637G]"
  SYSTEM_NAME: "Grb2 SH2 (UniProt P62993)"
  METRIC: "SH2 binding enrichment"
  RECORDED_VALUE: 0.615
- SEQ: "MCVKSYTIHFS [F5_Y2153_Y2149C_YF]"
  SYSTEM_NAME: "Grb2 SH2 (UniProt P62993)"
  METRIC: "SH2 binding enrichment"
  RECORDED_VALUE: 0.841
- SEQ: "MSGDVYSTDYY [NTRK2_Y702_R699G]"
  SYSTEM_NAME: "Grb2 SH2 (UniProt P62993)"
  METRIC: "SH2 binding enrichment"
  RECORDED_VALUE: 0.778
- SEQ: "EQWRAYLEGTC [HLA-C_Y183_L180W]"
  SYSTEM_NAME: "Grb2 SH2 (UniProt P62993)"
  METRIC: "SH2 binding enrichment"
  RECORDED_VALUE: 0.749
- SEQ: "RRKRAYVEIEF [MAK16_Y282_Q277R_YF]"
  SYSTEM_NAME: "Grb2 SH2 (UniProt P62993)"
  METRIC: "SH2 binding enrichment"
  RECORDED_VALUE: 0.504
- SEQ: "TSEASYYKSLN [NGEF_Y288]"
  SYSTEM_NAME: "Grb2 SH2 (UniProt P62993)"
  METRIC: "SH2 binding enrichment"
  RECORDED_VALUE: 0.684
- SEQ: "LYNQDYPIHSV [GATM_Y227]"
  SYSTEM_NAME: "Grb2 SH2 (UniProt P62993)"
  METRIC: "SH2 binding enrichment"
  RECORDED_VALUE: 1.02

Req: Give its SH2 binding enrichment value. Item: RKKEEYKMAPY [F8_Y1990_L1994P]
Resp: 1.32

Req: Can you share its SH2 binding enrichment? I mean this sequence: RQAQAYRGQRV [TSHR_Y706]
Resp: 0.691

Req: Recorded SH2 binding enrichment for LFFFSYLLKNH [PTEN_Y180_V175L_YF] , please?
Resp: 0.901

Req: Dear colleague, I am looking for the recorded SH2 binding enrichment of the following sequence: TAALWYIYSHT [ENG_Y612]
Resp: 0.781

Req: What value of SH2 binding enrichment has been recorded for this entry: TNGFTCGSSHQ [MANEA_Y331_Y331C]
Resp: 0.791

Req: Reported SH2 binding enrichment for ILGRYYETSSI [PAX2_Y73_G76S] : what is it?
Resp: 0.782
